test system: SF-268 CNS; experiment: NCI-60 one-dose screen, 48 h; conditions: 10 µM
This is part of a sample that, as a whole, favours compounds with a hit. Of some 83,000 tested, about 20% had one in any assay. Calls of active or inactive are those of the source. How the source made its calls: active means growth percent below 10; inactive means the rest.
Labels: active, inactive

COMPOUND: O=C(CSc1nnc(-c2ccc(Cl)cc2)o1)Nc1ccc(C(=O)/C=C/c2ccc(Cl)cc2)cc1
TESTED_SYSTEM: SF-268 CNS
LABEL_VALUE: inactive
--
COMPOUND: OCC1OC(n2cnc3c(NCc4ccco4)ncnc32)C(O)C1O (stereo not given)
TESTED_SYSTEM: SF-268 CNS
LABEL_VALUE: inactive
--
COMPOUND: Cc1ccc(S(=O)(=O)N/N=C2\CCCc3ccccc32)cc1
TESTED_SYSTEM: SF-268 CNS
LABEL_VALUE: inactive
--
COMPOUND: O=C1c2ccccc2-c2c1c1cccnc1c(=O)n2C[C@H](O)CO
TESTED_SYSTEM: SF-268 CNS
LABEL_VALUE: inactive
--
COMPOUND: N#Cc1c(-c2ccc(Cl)cc2)n(O)c2ccccc12
TESTED_SYSTEM: SF-268 CNS
LABEL_VALUE: inactive
--
COMPOUND: COc1cc(C(=O)N2CCN(c3cc4c(cc3F)c(=O)c(C(=O)NO)cn4C3CC3)CC2)cc(OC)c1OC
TESTED_SYSTEM: SF-268 CNS
LABEL_VALUE: inactive
--
COMPOUND: C=CCNCCN1C(=O)c2ccc3c4c(ccc(c24)C1=O)C(=O)N(CCNCC=C)C3=O
TESTED_SYSTEM: SF-268 CNS
LABEL_VALUE: active
--
COMPOUND: NS(=O)(=O)c1ccc(N2N=C(c3ccccc3)CCC2=O)cc1
TESTED_SYSTEM: SF-268 CNS
LABEL_VALUE: inactive
--
COMPOUND: NS(=O)(=O)Oc1ccc(-c2ccc3sccc3c2)cc1
TESTED_SYSTEM: SF-268 CNS
LABEL_VALUE: inactive
--
COMPOUND: O=C(N/N=C/c1c(Cl)cccc1Cl)c1ccccc1Nc1cccc(C(F)(F)F)c1
TESTED_SYSTEM: SF-268 CNS
LABEL_VALUE: inactive
